Tested on: insulin resistant adipocytes (differentiated 3T3 L1 fibroblasts)
Assay: In vitro model exhibiting insulin resistance: 14C-2-deoxyglucose uptake in dexamethasone-treated adipocytes
Format: cell-based
Conditions: test compound 10 μM/mL, Rosiglitazone 0.1 μM; vehicle = 1.0; cut off for activity 1.50 fold
Items are presented alongside their recorded Fold Vehicle (fold activity over vehicle, glucose uptake).
MEASURED ENDPOINT: Fold Vehicle (fold activity over vehicle, glucose uptake)

[
  {
    "SMILES STR": "CC(=O)N1CCN(c2ccc(Oc3ncc(NS(=O)(=O)c4ccc(Cl)cc4Cl)cc3Cl)cc2)CC1",
    "DATA VALUE": 2.10
  },
  {
    "SMILES STR": "CC(=O)N1CCN(c2ccc(Oc3ncc(NS(=O)(=O)c4ccc(C(F)(F)F)cc4Cl)cc3Cl)cc2)CC1",
    "DATA VALUE": 1.85
  },
  {
    "SMILES STR": "COc1ccc(OC)c(S(=O)(=O)Nc2cnc(Oc3ccc(N4CCN(C(C)=O)CC4)cc3)c(Cl)c2)c1",
    "DATA VALUE": 1.55
  },
  {
    "SMILES STR": "CC(=O)N1CCN(c2ccc(Oc3ncc(NS(=O)(=O)c4ccc(Cl)c(Cl)c4)cc3Cl)cc2)CC1",
    "DATA VALUE": 1.93
  },
  {
    "SMILES STR": "CC(=O)N1CCN(c2ccc(Oc3ncc(NC(=O)CCC(=O)O)cc3Cl)cc2)CC1",
    "DATA VALUE": 1.49
  },
  {
    "SMILES STR": "O=S(=O)(Nc1cnc(Oc2ccccc2-c2nc3ccccc3s2)c(Cl)c1)c1ccc(Cl)cc1Cl",
    "DATA VALUE": 2.0
  }
]
